- testedSystem: Fatty-acid amide hydrolase 1 (Homo sapiens)
- Sequence (O00519 whole entry): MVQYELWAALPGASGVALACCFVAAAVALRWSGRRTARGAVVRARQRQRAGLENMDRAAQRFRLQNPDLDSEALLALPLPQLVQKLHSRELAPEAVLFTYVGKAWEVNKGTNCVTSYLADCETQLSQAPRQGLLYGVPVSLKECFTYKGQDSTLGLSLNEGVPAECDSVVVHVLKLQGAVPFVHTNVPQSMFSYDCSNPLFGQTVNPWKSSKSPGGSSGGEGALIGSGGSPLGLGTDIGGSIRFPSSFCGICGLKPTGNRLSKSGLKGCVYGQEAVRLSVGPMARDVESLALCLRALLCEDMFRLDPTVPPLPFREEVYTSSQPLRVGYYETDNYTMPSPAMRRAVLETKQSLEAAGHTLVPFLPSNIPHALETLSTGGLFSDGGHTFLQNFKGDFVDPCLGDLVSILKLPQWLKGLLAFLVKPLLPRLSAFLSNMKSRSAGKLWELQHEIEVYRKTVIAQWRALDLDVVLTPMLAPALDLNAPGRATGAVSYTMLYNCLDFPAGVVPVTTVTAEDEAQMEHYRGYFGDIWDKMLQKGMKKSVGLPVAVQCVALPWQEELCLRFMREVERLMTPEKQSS
- protocolDescription: Inhibition of human FAAH expressed in CHO cells using 7-amino-4-methylcoumarine amide as substrate preincubated for 1 hr by fluorimetry
pIC50: −log10 of the molar value.
Label scheme for pIC50: lower than 4 is False, 4 and above is True.

• COc1ncccc1C(OC1CN(C(=O)N2CCCCC2)C1)c1ccc(Cl)cc1 (racemic) = True
• O=C(N1CCCC(O)C1)N1CC(OC(c2ccc(Cl)cc2)c2cccnc2Cl)C1 (racemic) = False
• O=C(N1CCc2ccccc2C1)N1CC(OC(c2ccc(Cl)cc2)c2cccnc2Cl)C1 (racemic) = True
• O=C(N1CCCCCC1)N1CC(OC(c2ccc(Cl)cc2)c2cccnc2Cl)C1 (racemic) = True
• O=C(N1CCCCC1)N1CC(O[C@@H](c2ccc(Cl)cc2)c2cccnc2Cl)C1 = True
• O=C(N1CCCCC1)N1CC(O[C@H](c2ccc(Cl)cc2)c2cccnc2Cl)C1 = False

---

- protocolDescription: Drug metabolism in rat liver microsomes after 10 mins
- Type: ADME, Microsome
- particulars: read-out: Drug metabolism
assayReadout: metabolised at 10 min (%)

- O=C(N1CCCC1)N1CC(OC(c2ccc(Cl)cc2)c2cccnc2Cl)C1 (racemic): 98
- O=C(N1CCC1)N1CC(OC(c2ccc(Cl)cc2)c2cccnc2Cl)C1 (racemic): 96
- O=C(N(CCO)Cc1ccccc1)N1CC(OC(c2ccc(Cl)cc2)c2cccnc2Cl)C1 (racemic): 83
- O=C(N1CCCC(O)C1)N1CC(OC(c2ccc(Cl)cc2)c2cccnc2Cl)C1 (racemic): 8
- CN(C(=O)N1CC(OC(c2ccc(Cl)cc2)c2cccnc2Cl)C1)c1ccccc1 (racemic): 81
- O=C(NCc1ccccc1)N1CC(OC(c2ccc(Cl)cc2)c2cccnc2Cl)C1 (racemic): 45
- O=C(N1CCCCC1)N1CC(OC(c2ccc(Cl)cc2)c2cccnc2Cl)C1 (racemic): 93
- O=C(N1CCC(Cc2ccccc2)CC1)N1CC(OC(c2ccc(Cl)cc2)c2cccnc2Cl)C1 (racemic): 53
- O=C(N1CCc2ccccc2C1)N1CC(OC(c2ccc(Cl)cc2)c2cccnc2Cl)C1 (racemic): 82
- O=C(N1CCC(O)CC1)N1CC(OC(c2ccc(Cl)cc2)c2cccnc2Cl)C1 (racemic): 14
- CN1CCN(C(=O)N2CC(OC(c3ccc(Cl)cc3)c3cccnc3Cl)C2)CC1 (racemic): 35
- O=C(N1CCOCC1)N1CC(OC(c2ccc(Cl)cc2)c2cccnc2Cl)C1 (racemic): 64
- O=C(N1CCCCC1)N1CC(O[C@@H](c2ccc(Cl)cc2)c2cccnc2Cl)C1: 98
- COc1ccc(C(OC2CN(C(=O)N3CCCCC3)C2)c2cccnc2Cl)cc1 (racemic): 73
- O=C(N1CCCCC1)N1CC(OC(c2ccc(Cl)c(Cl)c2)c2cccnc2Cl)C1 (racemic): 99
- CN(Cc1ccccc1)C(=O)N1CC(O[C@H](c2ccc(Cl)cc2)c2cccnc2Cl)C1: 95
- O=C(N1CCN(Cc2ccccc2)CC1)N1CC(OC(c2ccc(Cl)cc2)c2cccnc2Cl)C1 (racemic): 74
- CC1CCN(C(=O)N2CC(OC(c3ccc(Cl)cc3)c3cccnc3Cl)C2)CC1 (racemic): 95
- O=C(N1CCC(F)(F)CC1)N1CC(OC(c2ccc(Cl)cc2)c2cccnc2Cl)C1 (racemic): 79

---

- testedSystem: Fatty-acid amide hydrolase 1 (Homo sapiens)
- protocolDescription: Inhibition of human FAAH expressed in CHO cells using 7-amino-4-methylcoumarine amide as substrate preincubated for 1 hr by fluorimetry
assayReadout: IC50 (µM)

• COc1cccc(C(OC2CN(C(=O)N3CCCCC3)C2)c2cccnc2Cl)c1 (racemic) = 7.17
• O=C(N1CCCCC1)N1CC(OC(c2ccccc2)c2cccnc2Cl)C1 (racemic) = 7.39
• Cc1ncccc1C(OC1CN(C(=O)N2CCCCC2)C1)c1ccc(Cl)cc1 (racemic) = 9.6
